The reader will find reported IL-8, cross-linked by F(ab')2 fragment [abs. corr.] values listed item by item below.
Target: T1, CD27 expressed on the cell surface (HT1080_CD27 cells) (human, UniProt P26842 20-260); also: test concentration or dose not given here
T1 sequence (looked up): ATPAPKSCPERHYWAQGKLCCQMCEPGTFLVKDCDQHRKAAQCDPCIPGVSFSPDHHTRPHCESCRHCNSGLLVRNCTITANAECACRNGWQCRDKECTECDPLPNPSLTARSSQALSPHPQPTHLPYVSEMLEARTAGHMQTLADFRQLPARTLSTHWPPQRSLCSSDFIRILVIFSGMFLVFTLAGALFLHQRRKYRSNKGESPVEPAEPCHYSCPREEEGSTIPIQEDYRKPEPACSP
Experiment: cell-based or functional assay
metric name: IL-8, cross-linked by F(ab')2 fragment [abs. corr.] (abs. corr.)

binder	reported value
P018.S.07.A.B06 (antibody, V domains shown, V regions on human Ig constant parts; also called AB27_118) VH: QEQLVESGGDLVKPGTSLTLTCKASGLDFSSTPYMCWVRQAPGKGLEWIACIYTGSVIYTYYASWAKDRFTISKISSTSVTLQMTSLTVADTATYFCARSPAGYAAYGYGGFNLWGPGTLVTVSS VL: AIEMTQTPFSVSAAVGGTVTINCQASQNIYNNLAWYQQKPGQPPKLLIYGASTLESGVPSRFEGSGSGTEYTLTISDLESDDAATYYCQSAYYSSSATDMAFGGGTEVVVK	1.07
P018.S.08.A.D02 (antibody, V domains shown, V regions on human Ig constant parts; also called AB27_138) VH: QSVEESGGRLVTPGTPLTLTCTVSGFSLSHYHILWVRQAPGEGLKYIGITLNNGRIDYATWAKGRFTISKTSTTVDLEITSPTTEDTATYFCAKYFVSESYDLWGQGTLVTVSS VL: TAVLTQTPSPVSAAVGSTVTINCQASQSVYNDNWLSWYQQKPGQPPKLLIYGASTLASGVPSRFKGSGSGTQFTLTISDVQSGDAATYYCLGGYKDNSDNVFGGGTEVVVK	1.67
P018.S.10.A.B06 (antibody, V domains shown, V regions on human Ig constant parts; also called AB27_169) VH: QSVEESGGRLVTPGTPLTLTCTVSGFSLSSSHMCWVRQAPGKGLEWIGVINIGDIAYYASWAKGRFTISKTSTTVDLKMTSLTAADTATYFCARENAYGTGWDFDLWGQGTLVTVSS VL: AYDMTQTPASVEVAVGGTVTIKCQASESIRNALAWYQQKPGQPPKQLIYSASTLASGVPSRFKGSGSGTEFTLTISGVQSDDAATYYCQQGFSLRNVDNAFGGGTEVVVK	1.46
P018.S.07.A.H05 (antibody, V domains shown, V regions on human Ig constant parts; also called AB27_133) VH: QSLEESGGRLVTPGTPLTLTCTASGFSLNSYYINWVRQAPGKGLEWIGFINGYDNTWYASWAKGRFTISRTSTTVDLRITSPTTEDTATYFCARDPGGASGTGRLDLWGQGTLVTVSS VL: DIVMTQTPASVSAAVGGTVTINCQASQSISTALAWYQQKPGQRPKLLIYDASKLASGVPSRFKGNGSGTEFTLTISDLESADAATYYCQCTYYDAYDVGAFGGGTEVVVN	1.19
P018.S.02.A.G03 (antibody, V domains shown, V regions on human Ig constant parts; also called AB27_38) VH: QSVEESGGRLVTPGTPLTLTCTVSGFSLSSYVMSWVRQAPGKGLEWIGYIDYGGTAYYASWAKGRFTISKTSTTVELKITSPTIEDTATYFCARGGYGGYILVTGLWGPGTLVTVSS VL: DIVMTQTPASVSEPVGGTVTIKCQASQTIISYLSWYQQKPGQPPKLLIYGASTLASGVPSRFKGSGSVTEYTLTISDLESADAATYYCQTYYGGGPFGNGFGGGTEVVVK	1.48
P018.S.06.A.F04 (antibody, V domains shown, V regions on human Ig constant parts; also called AB27_109) VH: QQQLEESGGGLVKPEGSLTLTCKASGFTLSSYLMCWVRQAPGKGLELIGCIGTYSGATYYGSWAKDRFTIAKTSSTTVTLQMTSLTAADTATYFCARDYNFALWGPGTLVTVSS VL: AIVMTQTPSSKSVPVGDTVTINCQASESVYNNNYLSWFQQKPGQPPKLLIYGASTLTSGVPSRFKGSGSGTQFTLTISDVVSDDAATYYCAGYKSSWTDGNAFGGGTEVVVK	1.16
P018.S.06.A.E01 (antibody, V domains shown, V regions on human Ig constant parts; also called AB27_104) VH: QSLEESGGRLVTPGTPLTLTCTASGFSLSSYYMTWVRQAPGEGLEWIGTISTAGNTYFASWVKGRFTISRTSTTVDLKMTSPTTEDTATYFCTRDGAGDSNYYRNLWGQGTLVTVSS VL: AIDMTQTPASVEAAVGGTVTIKCQASESIDRFLAWYQQKPGQPPKLLIVDASTLESGVPSRFSGSGSGTEFTLTISDLESDNAATYYCQQGYAISDIDNVFGGGTEVVVK	1.55
P018.S.04.A.B01 (antibody, V domains shown, V regions on human Ig constant parts; also called AB27_66) VH: QEQLVESGGDLVKPGGTLTLTCTASGFSFSSSYYMSWVRQAPGKGLEWIACIDTADAYTYYASWAKGRFTISKTSSTTVSLQMTSLTAADTATYFCARERIAYNTDYFNLWGPGTLVTVSS VL: AQVLTQTPSPVSAAVGGTVTISCQSSQSLYNYNNLAWYQQKPGQPPKLLIYSASNLASGVPSRFGGSGSGTQFTLTISDLQSDDAATYYCQGYYSGAVYTFGGGTEVVVK	1.67
P018.S.10.A.E06 (antibody, V domains shown, V regions on human Ig constant parts; also called AB27_178) VH: QSLEESGGRLVTPGTPLTLTCTVSGIDLSDYAMAWVRQAPGKGLEYIGFINIGGISSVANWAIGRFTISKSSTTVDLKITSPTTEDTATYFCAREGYTTGGGGPYYGMDLWGPGTLVTVSS VL: DIVMTQTPASVSEPMGGTVTIKCQASQSIHSWLSWYQQKPGQPPKRLIYTASTLASGVPSRFKGSGSGTEYTLTISDLESADAATYYCQRNSYSDFNNYVFGGGTEVVVK	2.06
P018.S.01.A.C05 (antibody, V domains shown, V regions on human Ig constant parts; also called AB27_9) VH: QSLEESGGGLVQPEGSLTLTCTASGFSFSSRYYMCWVRQAPGKGLELIACIDTSSGSTWYASWAKGRFTVSKTSSTTVTLQMTSLTAADTATYFCARDLYHENSDGDWWGPGTLVTVSS VL: AFELTQTPSSVEAAVGGTVTIKCQASESINNYLAWYQQKPGQPPKLLIYKASTLASGVSSRFKGSGSGTDFTLTISGVQSDDAATYYCQSYYGASGSGSNVFGGGTEVVVK	1.4
